B1: glmS ribozyme (parent)
chain: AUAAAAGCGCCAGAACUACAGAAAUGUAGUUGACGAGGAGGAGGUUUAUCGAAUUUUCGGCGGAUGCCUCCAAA

variants of: B1; assay: kcat; higher = faster cleavage; RNA array; conditions: with glucosamine-6-phosphate
Variants at the floor of the assay were thinned out.
Threshold rule: kcat greater than or equal to 0.0009 s⁻¹ is Condition met; below that, Condition not met.

Asked: Reported kcat at or above 0.0009 s⁻¹? G43A C67U
Given back: Condition not met

Asked: Reported kcat at or above 0.0009 s⁻¹? A33U U47G
Given back: Condition not met

Asked: Reported kcat at or above 0.0009 s⁻¹? A12G G32U
Given back: Condition met

Asked: Reported kcat at or above 0.0009 s⁻¹? C10G G60C
Given back: Condition met

Asked: Reported kcat at or above 0.0009 s⁻¹? A14U A48G
Given back: Condition not met

Asked: Reported kcat at or above 0.0009 s⁻¹? G13U C70G
Given back: Condition not met

Asked: Reported kcat at or above 0.0009 s⁻¹? C16A U54C
Given back: Condition met

Asked: Reported kcat at or above 0.0009 s⁻¹? C10U G32U
Given back: Condition not met

Asked: Reported kcat at or above 0.0009 s⁻¹? C16A U57A
Given back: Condition not met

Asked: Reported kcat at or above 0.0009 s⁻¹? U54C C61U
Given back: Condition not met

Asked: Reported kcat at or above 0.0009 s⁻¹? U31A A39G
Given back: Condition met

Asked: Reported kcat at or above 0.0009 s⁻¹? C61G C67U
Given back: Condition not met

Asked: Reported kcat at or above 0.0009 s⁻¹? "U46A"
Given back: Condition met

Asked: Reported kcat at or above 0.0009 s⁻¹? G29A G38C
Given back: Condition not met

Asked: Reported kcat at or above 0.0009 s⁻¹? G43U A53G
Given back: Condition not met

Asked: Reported kcat at or above 0.0009 s⁻¹? U31G A33U
Given back: Condition not met

Asked: Reported kcat at or above 0.0009 s⁻¹? G51U G60C
Given back: Condition not met

Asked: Reported kcat at or above 0.0009 s⁻¹? A39U A42U U55G G66U
Given back: Condition not met

Asked: Reported kcat at or above 0.0009 s⁻¹? A15C C67U
Given back: Condition met

Asked: Reported kcat at or above 0.0009 s⁻¹? A15G G44A
Given back: Condition not met
